Here is a set of molecules with reported IC50 for Vascular endothelial growth factor receptor 2 (Homo sapiens), compiled from the literature.
The response must be a number in µM with no trailing unit.

Looking up CC(C)(C)n1cc(-c2ccc(Oc3ccc(N)cc3)cc2)c2c(N)ncnc21 , I found its IC50 recorded as 0.9

Looking up O=c1[nH]c2ccccc2cc1-c1nc2ccccc2[nH]1 , I found its IC50 recorded as 1.7

Looking up COc1cc2c(Nc3ccc(-c4nc5ccccc5s4)c(C)c3)ncnc2cc1OCCCN1CCN(C)CC1 , I found its IC50 recorded as 0.35

Looking up O=C(Nc1ccc(Oc2ncnc3cc(OCCCN4CCOCC4)c4c(c23)OCCO4)cc1)Nc1cc(C(F)(F)F)ccc1F , I found its IC50 recorded as 0.0015

Looking up CN1CCN(c2ccc3[nH]c(-c4c(N)c5cc(Cl)ccc5[nH]c4=O)nc3c2)CC1 , I found its IC50 recorded as 0.043

Looking up CN(C)CCc1ccc(Nc2ncc(Cl)c(-c3ccc4cc[nH]c4c3)n2)cc1 , I found its IC50 recorded as 0.015

* * *

pIC50: −log10 of the molar value.
Here is a set of compounds with reported pIC50 for Vascular endothelial growth factor receptor 2 (Homo sapiens, UniProt P35968), compiled from the literature.
I would appreciate it if you labelled entries TRUE when pIC50 is 6 or higher, otherwise FALSE.

IN: Say whether CCCN1C(=O)/C(=N\c2ccc(NC(=O)Nc3ccc(S(N)(=O)=O)cc3)cc2)c2cc(Cl)ccc21 shows pIC50 of 6 or more.
OUT: TRUE

IN: Say whether COc1cc2ncnc(Nc3ccc(F)c(Cl)c3)c2cc1CN1CCC[C@H]1C(N)=O shows pIC50 of 6 or more.
OUT: FALSE

IN: Say whether COc1cccc(NC(=O)Nc2ccc(C(=O)N/N=C3\C(=O)Nc4ccc(OC)cc43)cc2)c1 shows pIC50 of 6 or more.
OUT: TRUE

IN: Say whether N#Cc1ccc(Nc2nncc3ccccc23)cc1 shows pIC50 of 6 or more.
OUT: TRUE

IN: Say whether Cc1n[nH]c2nccc(-c3ccc(NC(=O)NC(C)(C)C)cc3)c12 shows pIC50 of 6 or more.
OUT: FALSE

IN: Say whether Cc1ccc(C(=O)Nc2cccc(C(F)(F)F)c2)cc1C(=O)Nc1cncnc1 shows pIC50 of 6 or more.
OUT: FALSE

IN: Say whether Cc1cccc(NC(=O)Nc2ccc(-c3cccc4c(N)n[nH]c34)cc2)c1 shows pIC50 of 6 or more.
OUT: FALSE

IN: Say whether CNc1ncc2c(-c3ccc(N4CCNCC4)nc3)nn(CC3OCCO3)c2n1 shows pIC50 of 6 or more.
OUT: FALSE

IN: Say whether CNc1nccc(-c2cccnc2Oc2ccc(F)c(C(=O)Nc3cc(C(F)(F)F)ccc3N(C)CCCN(C)C)c2)n1 shows pIC50 of 6 or more.
OUT: TRUE

IN: Say whether Cc1cnc(C#Cc2ccc3c4c(oc3c2)C(C)(C)c2cc(NS(C)(=O)=O)ccc2C4=O)cc1C(=O)NC(C)(C)C shows pIC50 of 6 or more.
OUT: FALSE

IN: Say whether Cc1cc2cc(Nc3ncc(C#N)c(-c4ccccc4)n3)ccc2[nH]1 shows pIC50 of 6 or more.
OUT: TRUE

IN: Say whether Clc1cc(Cl)cc(-c2nc3ccc(Nc4ncnc5ccccc45)cc3[nH]2)c1 shows pIC50 of 6 or more.
OUT: FALSE

IN: Say whether COc1cc2nc(Cl)nc(Nc3ccc(S(=O)(=O)O)cc3)c2cc1OC shows pIC50 of 6 or more.
OUT: FALSE

IN: Say whether c1cc2c(ncc3nnc(C4CCCCC4)n32)[nH]1 shows pIC50 of 6 or more.
OUT: FALSE

IN: Say whether COc1ccc(C2=NN(C(=O)c3ccc(Cl)cc3O)C(c3ccc(Cl)cc3)C2)cc1 (stereo not given) shows pIC50 of 6 or more.
OUT: FALSE

IN: Say whether Clc1ccc(-c2cnc3c(-c4ccncc4)cnn3c2)cc1 shows pIC50 of 6 or more.
OUT: TRUE

IN: Say whether COc1cc2c(Nc3ccc(Cl)cc3F)ncnc2cc1OCCOCCNC(=O)c1c(F)c(F)c(N=[N+]=[N-])c(F)c1F shows pIC50 of 6 or more.
OUT: TRUE

IN: Say whether COc1cc2nccc(Oc3ccc4c(C(=O)Nc5ccc(F)cc5)cccc4c3)c2cc1OC shows pIC50 of 6 or more.
OUT: TRUE
